valueType: melting point (°C)
Answers are plain numbers, in °C.

molecule: CN1C2CCC1CN(c1ccc(-c3cccc(N)c3)nn1)C2 [Compound E7]
unitLabel: °C
observedMeasurement: 164
//
molecule: CN1C2CCC1CN(c1ccc(-c3ccco3)nn1)C2 [Compound E3]
unitLabel: °C
observedMeasurement: 144

Please go through the list and note melting point for each molecule.
1. CN1C2CCC1CN(c1ccc(-c3cccc(Cl)c3)nn1)C2
2. CN1C2CCC1CN(c1ccc(-c3ccccc3F)nn1)C2 [Compound E9]
3. CN1C2CCC1CN(c1ccc(-c3ccccc3)nn1)C2
4. CN1C2CCC1CN(c1ccc(-c3ccoc3)nn1)C2 [Compound E5]
5. CC(=O)Nc1cccc(-c2ccc(N3CC4CCC(C3)N4C)nn2)c1 [Compound E8]

Result:
[159, 152, 151, 152, 74]

// provenance: patent US20080153806A1
